tested on: human neural stem cells; test: CellTiter-Glo toxicity in mock-infected neural stem cells; conditions: mock-infected neural stem cells, 72 h, CellTiter-Glo, ± SE, n = 4
Measured CC50, listed per entry.
readout_name: CC50

{"molecule": "CC(C)OC(=O)C(C)NP(=O)(OCC1CC(O)C(n2cnc3c(N)ncnc32)O1)Oc1ccccc1 (stereo not drawn)", "result": "> 50 µM"}
{"molecule": "CC(C)OC(=O)C(C)NP(=O)(OCC1OC(n2cnc3c(N)ncnc32)C(C)(O)C1O)Oc1ccccc1 (stereo not drawn)", "result": "42 µM"}
{"molecule": "C#CC1(O)C(O)C(COP(=O)(NC(C)C(=O)OC(C)C)Oc2ccccc2)OC1n1ccc(=O)[nH]c1=O (stereo not drawn)", "result": "> 50 µM"}
